# tested.target: human cloned CHRM4 receptor (Homo sapiens, UniProt P08173)
# Sequence (P08173 whole entry): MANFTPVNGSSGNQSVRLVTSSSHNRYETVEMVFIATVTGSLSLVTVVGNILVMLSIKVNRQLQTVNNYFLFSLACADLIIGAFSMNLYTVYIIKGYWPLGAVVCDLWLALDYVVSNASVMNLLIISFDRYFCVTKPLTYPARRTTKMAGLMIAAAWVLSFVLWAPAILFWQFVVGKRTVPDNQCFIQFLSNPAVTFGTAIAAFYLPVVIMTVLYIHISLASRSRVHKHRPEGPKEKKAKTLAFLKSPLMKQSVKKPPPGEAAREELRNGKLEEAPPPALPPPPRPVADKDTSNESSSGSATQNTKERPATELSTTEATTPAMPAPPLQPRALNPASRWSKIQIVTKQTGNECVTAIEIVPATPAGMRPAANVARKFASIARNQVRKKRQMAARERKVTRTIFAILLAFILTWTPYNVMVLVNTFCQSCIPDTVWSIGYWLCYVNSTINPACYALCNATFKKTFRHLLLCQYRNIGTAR
# assay.remarks: CHRM4 Ca++ Flux Assay (M4_CHO cells, agonist mode)
# measurement.conditions: geometric mean if tested more than once, read-out: M4 FDSS EC50
Hi! Just check whether EC50 is below 20 nM. Below gives TRUE, equal or above gives FALSE.

smiles.string: COc1ccc(F)cc1C1CCN([C@@H]2COC3(C2)CN(c2ncco2)C3)CC1
qualitative.label: TRUE

smiles.string: COC(C)(C)CCOc1ccc(F)cc1C1CCN([C@@H]2COC3(C2)CN(c2nncs2)C3)CC1
qualitative.label: FALSE

smiles.string: Fc1ccc(C2CCOCC2)c(C2CCN([C@@H]3COC4(C3)CN(c3nnco3)C4)CC2)c1
qualitative.label: FALSE

smiles.string: CC(C)(O)COc1ccc(F)cc1C1CCN([C@@H]2COC3(C2)CN(c2ncns2)C3)CC1
qualitative.label: FALSE

smiles.string: Fc1ccc(OC2CC3(COC3)C2)c(C2CCN([C@@H]3COC4(C3)CN(c3nnco3)C4)CC2)c1
qualitative.label: FALSE

smiles.string: Fc1ccc(OC[C@@H]2CCOC2)c(C2CCN([C@@H]3COC4(C3)CN(c3nnco3)C4)CC2)c1
qualitative.label: TRUE

smiles.string: CC1(COc2ccc(F)cc2C2CCN([C@@H]3COC4(C3)CN(c3nncs3)C4)CC2)COC1
qualitative.label: FALSE

smiles.string: c1ccc(C2CCN([C@@H]3COC4(C3)CN(c3ncco3)C4)CC2)c(O[C@@H]2CCOC2)c1
qualitative.label: TRUE

* * *

# tested.target: human cloned CHRM2 receptor (Homo sapiens, UniProt P08172)
# Sequence (P08172 1-466): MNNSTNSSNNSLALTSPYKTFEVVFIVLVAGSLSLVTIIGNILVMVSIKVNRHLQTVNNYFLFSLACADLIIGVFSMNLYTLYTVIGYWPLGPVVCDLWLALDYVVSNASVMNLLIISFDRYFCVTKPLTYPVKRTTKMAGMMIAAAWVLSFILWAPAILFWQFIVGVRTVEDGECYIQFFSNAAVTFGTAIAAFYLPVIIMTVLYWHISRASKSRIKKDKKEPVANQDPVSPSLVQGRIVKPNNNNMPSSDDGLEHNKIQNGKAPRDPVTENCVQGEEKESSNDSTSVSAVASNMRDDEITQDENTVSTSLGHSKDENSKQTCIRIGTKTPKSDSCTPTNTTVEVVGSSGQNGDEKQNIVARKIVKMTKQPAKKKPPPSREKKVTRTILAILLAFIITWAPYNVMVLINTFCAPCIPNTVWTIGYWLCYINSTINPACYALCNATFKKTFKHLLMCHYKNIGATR
# assay.remarks: CHRM2 Ca++ Flux Assay (M2_CHO cells, agonist mode)
# measurement.conditions: M2 CHO cells, agonist mode; geometric mean if tested more than once; read-out: M2 FDSS EC50

molecule: c1ccc(C2CCN([C@@H]3COC4(C3)CN(c3ncco3)C4)CC2)c(OC2CCOCC2)c1
result.qualifier: >
EC50 / µM: 25
//
molecule: CC(C)(O)COc1ccc(F)cc1C1CCN([C@@H]2COC3(C2)CN(c2nnco2)C3)CC1
result.qualifier: >
EC50 / µM: 25
//
molecule: OC[C@H]1C[C@H](Oc2ccc(F)cc2C2CCN([C@@H]3COC4(C3)CN(c3nnco3)C4)CC2)C1 (single isomer, unassigned) [Example 2II]
result.qualifier: =
EC50 / µM: 4.29
//
molecule: Fc1ccc(OCC2CCOCC2)c(C2CCN([C@@H]3COC4(C3)CN(c3nnco3)C4)CC2)c1
result.qualifier: =
EC50 / µM: 0.874

Entry source: patent US11485742B2
